- assaySystem: GPR3 (Homo sapiens, UniProt P46089)
- Construct: expressed in transfected cells; host or cells: CHO cells
- Sequence (P46089 whole entry, species assumed): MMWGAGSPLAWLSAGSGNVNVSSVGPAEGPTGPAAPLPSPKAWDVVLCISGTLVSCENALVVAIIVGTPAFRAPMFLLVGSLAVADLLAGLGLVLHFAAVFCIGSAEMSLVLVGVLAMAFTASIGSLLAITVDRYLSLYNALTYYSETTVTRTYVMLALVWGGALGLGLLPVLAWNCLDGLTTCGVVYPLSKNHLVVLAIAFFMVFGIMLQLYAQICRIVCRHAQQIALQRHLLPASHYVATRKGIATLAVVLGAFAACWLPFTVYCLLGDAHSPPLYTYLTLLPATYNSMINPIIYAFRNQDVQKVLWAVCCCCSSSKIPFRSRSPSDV
- protocolText: GPR3 antagonist functional cAMP assay (LANCE Ultra cAMP TR-FRET, CHO cells stably expressing GPR3)
- Format: cell-based
- cond: procedure as described in Example 24
Property: IC50; scope: individual molecules
experimentalEndpoint: IC50

INSERT INTO results (compound, assayvalue) VALUES
  ('CC(=O)N1CCc2nc(N3CCC(Oc4ccc(F)cc4F)CC3)c(-c3ncc[nH]3)nc2C1', '1000 to 30000 nM'),
  ('CC(=O)N1CCc2nc(N3CCC(Oc4ccc(F)cc4F)CC3)c(-c3ccncn3)nc2C1', '100 to 1000 nM'),
  ('CC(=O)N1CCc2nc(N3CCC(Oc4ccc(F)cc4F)CC3)c(-c3cccc(OC4CCC4)n3)nc2C1', '1000 to 30000 nM'),
  ('COCn1ccnc1-c1nc2ccncc2nc1N1CCN(Cc2ccc(F)cc2Cl)CC1', '100 to 1000 nM'),
  ('CC(=O)N1CCc2nc(N3CCC(Oc4ccc(F)cc4F)CC3)c(-c3cnccn3)nc2C1', '100 to 1000 nM');

---

Listing: IC50 of selected compounds
- assaySystem: GPR3 (Homo sapiens, UniProt P46089)
- Construct: expressed in transfected cells; host or cells: CHO cells
- protocolText: GPR3 antagonist functional cAMP assay (LANCE Ultra cAMP TR-FRET, CHO cells stably expressing GPR3)
- Format: cell-based
- cond: CHO cells stably expressing GPR3, cAMP assay
experimentalEndpoint: IC50

INSERT INTO results (compound, assaysystem, assayvalue) VALUES
  ('CC(C)(O)C(O)c1cc2nc(-c3cnn(CF)c3)c(N3CCC(Oc4ccc(F)cc4F)CC3)nc2cn1 (single isomer, unassigned) [Compound 593]', 'GPR3 (Homo sapiens, UniProt P46089)', '0.1 to 1 µM'),
  ('CC(C)(O)[C@H](O)c1cc2nc(N3CCN(Cc4ccc(F)cc4F)CC3)c(-c3cnn(CF)c3)nc2cn1 (single isomer, unassigned)', 'GPR3 (Homo sapiens, UniProt P46089)', '1 to 30 µM'),
  ('CCOc1ccc(OC2CCN(c3nc4c(nc3-c3cnn(C)c3)CN(C(C)=O)CC4)CC2)c(F)c1', 'GPR3 (Homo sapiens, UniProt P46089)', '1 to 30 µM'),
  ('CC(=O)N1CCc2nc(N3CCN(Cc4ccnn4C)CC3)c(-c3cnn(C)c3)nc2C1', 'GPR3 (Homo sapiens, UniProt P46089)', '≥ 30 µM'),
  ('CC(=O)N1CCc2nc(N3CCN(Cc4ccccn4)CC3)c(-c3cnn(C)c3)nc2C1', 'GPR3 (Homo sapiens, UniProt P46089)', '≥ 30 µM');

---

Here the recorded pIC50 is given for each entry.
- assaySystem: GPR6 (Homo sapiens)
- Construct: expressed in transfected cells; host or cells: CHO cells
- Sequence (P46095 whole entry): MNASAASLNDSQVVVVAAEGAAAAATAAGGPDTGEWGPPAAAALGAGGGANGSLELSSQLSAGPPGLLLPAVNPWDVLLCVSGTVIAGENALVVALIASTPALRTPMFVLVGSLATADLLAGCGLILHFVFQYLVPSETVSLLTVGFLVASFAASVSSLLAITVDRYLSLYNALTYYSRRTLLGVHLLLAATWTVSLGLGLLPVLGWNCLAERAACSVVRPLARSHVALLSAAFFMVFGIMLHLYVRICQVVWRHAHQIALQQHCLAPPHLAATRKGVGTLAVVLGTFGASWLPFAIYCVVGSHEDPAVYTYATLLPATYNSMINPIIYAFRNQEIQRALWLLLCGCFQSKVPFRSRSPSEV
- protocolText: GPR6 antagonist functional cAMP assay (LANCE Ultra cAMP TR-FRET, CHO cells stably expressing GPR6)
- Format: cell-based
- cond: CHO cells stably expressing GPR6, cAMP assay
pIC50: −log10 of the molar value.
experimentalEndpoint: pIC50

INSERT INTO measurements (compound, assaysystem, assayvalue) VALUES
  ('Cn1cc(-c2nc3cnc([C@@](C)(O)CO)cc3nc2N2CCC(Oc3ccc(F)cc3F)CC2)cn1 (single isomer, unassigned) [Compound 564]', 'GPR6 (Homo sapiens)', '6.00 to 7.00'),
  ('CC(C)(O)C(O)c1cc2nc(-c3cnn(CF)c3)c(N3CCC(Oc4ccc(F)cc4F)CC3)nc2cn1 (single isomer, unassigned) [Compound 593]', 'GPR6 (Homo sapiens)', '> 7.00'),
  ('CC(=O)N1CCc2nc(N3CCN(Cc4cn(C)cn4)CC3)c(-c3cnn(C)c3)nc2C1 [Compound 528]', 'GPR6 (Homo sapiens)', '≤ 4.52');
